- Test system: OVCAR-5 complex spheroid (HUVEC/MSC), viability % T/C
- experimentSummary: Anticancer human tumor OVCAR-5 cell line growth inhibition [Asc];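 also: spheroids exposed to agents for 7 days before readout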;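 as to viability, T/C: 100% = DMSO vehicle-treated wells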
- appliedConditions: second compound 0.1 µM; first compound 0.00949 µM; stronger effect = lower value
observedProperty: viability, T/C (%)
// units = %; emit number, no label

molecule	readingUnit	viability, T/C
Cc1nc(N2CCC3(CC2)COC(C)C3N)c(CO)nc1Sc1ccnc(N)c1Cl (configuration not stated) + Cc1c(S(C)(=O)=O)c(-c2cc(F)cc(N3CCN(c4ccc(NS(=O)(=O)c5ccc(NC(CCN6CCC(C(=O)OCCCP(=O)(O)O)CC6)CSc6ccccc6)c(S(=O)(=O)C(F)(F)F)c5)cc4)CC3)c2)c(-c2ccc(Cl)cc2)n1C(C)C	%	96.4

Shift focus to the following entry.
Any idea what its viability, T/C is? The molecule is NC(=O)C(=Cn1cnc(-c2cc(C(F)(F)F)cc(C(F)(F)F)c2)n1)c1cncnc1 + Cc1c(S(C)(=O)=O)c(-c2cc(F)cc(N3CCN(c4ccc(NS(=O)(=O)c5ccc(NC(CCN6CCC(C(=O)OCCCP(=O)(O)O)CC6)CSc6ccccc6)c(S(=O)(=O)C(F)(F)F)c5)cc4)CC3)c2)c(-c2ccc(Cl)cc2)n1C(C)C
91.7

====

- System: OVCAR-5 complex spheroid (HUVEC/MSC), viability % T/C
- experimentSummary: Anticancer human tumor OVCAR-5 cell line growth inhibition [Asc];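 also: spheroids exposed to agents for 7 days before readout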;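 as to viability, T/C: 100% = DMSO vehicle-treated wells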
- appliedConditions: second compound 1 µM; first compound 0.03 µM; stronger effect = lower value
observedProperty: viability, T/C

compound	testedTarget	readoutValue
Cc1nc(N2CCC3(CC2)COC(C)C3N)c(CO)nc1Sc1ccnc(N)c1Cl (stereo not drawn) + CNC(C)C(=O)NC1CN(S(=O)(=O)c2cccc(S(=O)(=O)N3CCC4CCC(C(=O)NC(c5ccccc5)c5ccccc5)N4C(=O)C(NC(=O)C(C)NC)C3)c2)CCC2CCC(C(=O)NC(c3ccccc3)c3ccccc3)N2C1=O	OVCAR-5 complex spheroid (HUVEC/MSC), viability % T/C	80.8%

Any idea what its viability, T/C is? The compound is Cc1nc(N2CCC3(CC2)COC(C)C3N)c(CO)nc1Sc1ccnc(N)c1Cl (stereo not drawn) + Cc1c(S(C)(=O)=O)c(-c2cc(F)cc(N3CCN(c4ccc(NS(=O)(=O)c5ccc(NC(CCN6CCC(C(=O)OCCCP(=O)(O)O)CC6)CSc6ccccc6)c(S(=O)(=O)C(F)(F)F)c5)cc4)CC3)c2)c(-c2ccc(Cl)cc2)n1C(C)C
76.9%

Any idea what its viability, T/C is? The compound is CCN1C(C(=O)NC23CCC(C(=O)O)(CC2)CC3)C(c2cccc(Cl)c2F)C2(C(=O)Nc3cc(Cl)ccc32)C12CCCCC2 (stereo not drawn) + CNC(C)C(=O)NC1CN(S(=O)(=O)c2cccc(S(=O)(=O)N3CCC4CCC(C(=O)NC(c5ccccc5)c5ccccc5)N4C(=O)C(NC(=O)C(C)NC)C3)c2)CCC2CCC(C(=O)NC(c3ccccc3)c3ccccc3)N2C1=O
100%

====

- Test system: OVCAR-5 complex spheroid (HUVEC/MSC), viability % T/C
- experimentSummary: Anticancer human tumor OVCAR-5 cell line growth inhibition [Asc];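 also: spheroids exposed to agents for 7 days before readout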;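 as to viability, T/C: 100% = DMSO vehicle-treated wells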
- appliedConditions: second compound 0.1 µM; first compound 0.00949 µM; stronger effect = lower value
Reported values of viability, T/C for individual entries
// units = %; emit number, no label

Example entries and their recorded answers appear below.
compound	observedProperty	readoutValue
NC(=O)C(=Cn1cnc(-c2cc(C(F)(F)F)cc(C(F)(F)F)c2)n1)c1cncnc1 + CNC(C)C(=O)NC1CN(S(=O)(=O)c2cccc(S(=O)(=O)N3CCC4CCC(C(=O)NC(c5ccccc5)c5ccccc5)N4C(=O)C(NC(=O)C(C)NC)C3)c2)CCC2CCC(C(=O)NC(c3ccccc3)c3ccccc3)N2C1=O	viability, T/C	77.4
CCN1C(C(=O)NC23CCC(C(=O)O)(CC2)CC3)C(c2cccc(Cl)c2F)C2(C(=O)Nc3cc(Cl)ccc32)C12CCCCC2 (centres undefined) + CNC(C)C(=O)NC1CN(S(=O)(=O)c2cccc(S(=O)(=O)N3CCC4CCC(C(=O)NC(c5ccccc5)c5ccccc5)N4C(=O)C(NC(=O)C(C)NC)C3)c2)CCC2CCC(C(=O)NC(c3ccccc3)c3ccccc3)N2C1=O	viability, T/C	88.6

Any idea what its viability, T/C is? The compound is CCN1C(C(=O)NC23CCC(C(=O)O)(CC2)CC3)C(c2cccc(Cl)c2F)C2(C(=O)Nc3cc(Cl)ccc32)C12CCCCC2 (centres undefined) + Cc1c(S(C)(=O)=O)c(-c2cc(F)cc(N3CCN(c4ccc(NS(=O)(=O)c5ccc(NC(CCN6CCC(C(=O)OCCCP(=O)(O)O)CC6)CSc6ccccc6)c(S(=O)(=O)C(F)(F)F)c5)cc4)CC3)c2)c(-c2ccc(Cl)cc2)n1C(C)C
102

Any idea what its viability, T/C is? The compound is Cc1nc(N2CCC3(CC2)COC(C)C3N)c(CO)nc1Sc1ccnc(N)c1Cl (centres undefined) + CNC(C)C(=O)NC1CN(S(=O)(=O)c2cccc(S(=O)(=O)N3CCC4CCC(C(=O)NC(c5ccccc5)c5ccccc5)N4C(=O)C(NC(=O)C(C)NC)C3)c2)CCC2CCC(C(=O)NC(c3ccccc3)c3ccccc3)N2C1=O
84

====

- Tested on: OVCAR-5 complex spheroid (HUVEC/MSC), viability % T/C
- experimentSummary: Anticancer human tumor OVCAR-5 cell line growth inhibition [Asc];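 also: spheroids exposed to agents for 7 days before readout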;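 as to viability, T/C: 100% = DMSO vehicle-treated wells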
- appliedConditions: second compound 10 µM; first compound 0.1 µM; stronger effect = lower value
Reported values of viability, T/C for individual entries
// units = %; emit number, no label

Example entries and their recorded answers appear below.
compound	viability, T/C (%)
O=C(c1ccc(F)c(F)c1Nc1ccc(I)cc1F)N1CC(O)([C@@H]2CCCCN2)C1 + Cc1c(S(C)(=O)=O)c(-c2cc(F)cc(N3CCN(c4ccc(NS(=O)(=O)c5ccc(NC(CCN6CCC(C(=O)OCCCP(=O)(O)O)CC6)CSc6ccccc6)c(S(=O)(=O)C(F)(F)F)c5)cc4)CC3)c2)c(-c2ccc(Cl)cc2)n1C(C)C	41.1
C=C(F)C(=O)N1CCN(c2nc(OCC3CCCN3C)nc3c2CCN(c2cccc4cccc(Cl)c24)C3)CC1CC#N (centres undefined) + Cc1c(S(C)(=O)=O)c(-c2cc(F)cc(N3CCN(c4ccc(NS(=O)(=O)c5ccc(NC(CCN6CCC(C(=O)OCCCP(=O)(O)O)CC6)CSc6ccccc6)c(S(=O)(=O)C(F)(F)F)c5)cc4)CC3)c2)c(-c2ccc(Cl)cc2)n1C(C)C	131
C=CC(=O)N1CCN(c2nc(=O)n(-c3c(C)ccnc3C(C)C)c3nc(-c4c(O)cccc4F)c(F)cc23)C(C)C1 (centres undefined) + Cc1c(S(C)(=O)=O)c(-c2cc(F)cc(N3CCN(c4ccc(NS(=O)(=O)c5ccc(NC(CCN6CCC(C(=O)OCCCP(=O)(O)O)CC6)CSc6ccccc6)c(S(=O)(=O)C(F)(F)F)c5)cc4)CC3)c2)c(-c2ccc(Cl)cc2)n1C(C)C	136

Shift focus to the following entry.
Any idea what its viability, T/C is? The compound is Cn1ncnc1[C@H]1c2n[nH]c(=O)c3cc(F)cc(c23)N[C@@H]1c1ccc(F)cc1 + Cc1c(S(C)(=O)=O)c(-c2cc(F)cc(N3CCN(c4ccc(NS(=O)(=O)c5ccc(NC(CCN6CCC(C(=O)OCCCP(=O)(O)O)CC6)CSc6ccccc6)c(S(=O)(=O)C(F)(F)F)c5)cc4)CC3)c2)c(-c2ccc(Cl)cc2)n1C(C)C
102

====

- System: OVCAR-5 complex spheroid (HUVEC/MSC), viability % T/C
- experimentSummary: Anticancer human tumor OVCAR-5 cell line growth inhibition [Asc];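 also: spheroids exposed to agents for 7 days before readout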
- appliedConditions: compound alone; run of 10/03/2022
pIC50: −log10 of the molar value.
observedProperty: pIC50

Any idea what its pIC50 is? The compound is CNC(C)C(=O)NC1CN(S(=O)(=O)c2cccc(S(=O)(=O)N3CCC4CCC(C(=O)NC(c5ccccc5)c5ccccc5)N4C(=O)C(NC(=O)C(C)NC)C3)c2)CCC2CCC(C(=O)NC(c3ccccc3)c3ccccc3)N2C1=O (stereo unspecified)
< 6.00

====

- Tested on: OVCAR-5 complex spheroid (HUVEC/MSC), viability % T/C
- experimentSummary: Anticancer human tumor OVCAR-5 cell line growth inhibition [Asc];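 also: spheroids exposed to agents for 7 days before readout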;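 as to viability, T/C: 100% = DMSO vehicle-treated wells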
- appliedConditions: second compound 0.1 µM; first compound 0.316 µM; stronger effect = lower value
Binarize viability, T/C at 80%; below is 1, at or above is 0.

Please review the entries below; each comes with its answer.
molecule	qualitativeLabel
C=CC(=O)N1CCN(c2nc(=O)n(-c3c(C)ccnc3C(C)C)c3nc(-c4c(O)cccc4F)c(F)cc23)C(C)C1 (configuration not stated) + CNC(C)C(=O)NC1CN(S(=O)(=O)c2cccc(S(=O)(=O)N3CCC4CCC(C(=O)NC(c5ccccc5)c5ccccc5)N4C(=O)C(NC(=O)C(C)NC)C3)c2)CCC2CCC(C(=O)NC(c3ccccc3)c3ccccc3)N2C1=O	0
COc1c(OCCCN2CCOCC2)ccc2c3n(c(=NC(=O)c4cnc(N)nc4)nc12)CCN3 + Cc1c(S(C)(=O)=O)c(-c2cc(F)cc(N3CCN(c4ccc(NS(=O)(=O)c5ccc(NC(CCN6CCC(C(=O)OCCCP(=O)(O)O)CC6)CSc6ccccc6)c(S(=O)(=O)C(F)(F)F)c5)cc4)CC3)c2)c(-c2ccc(Cl)cc2)n1C(C)C	1
C#Cc1c(F)ccc2cc(O)cc(-c3ncc4c(N5CC6CCC(C5)N6)nc(OCC56CCCN5CC(F)C6)nc4c3F)c12 (configuration not stated) + Cc1c(S(C)(=O)=O)c(-c2cc(F)cc(N3CCN(c4ccc(NS(=O)(=O)c5ccc(NC(CCN6CCC(C(=O)OCCCP(=O)(O)O)CC6)CSc6ccccc6)c(S(=O)(=O)C(F)(F)F)c5)cc4)CC3)c2)c(-c2ccc(Cl)cc2)n1C(C)C	0
CCN1CCN(Cc2ccc(Nc3ncc(F)c(-c4cc(F)c5nc(C)n(C(C)C)c5c4)n3)nc2)CC1 + Cc1c(S(C)(=O)=O)c(-c2cc(F)cc(N3CCN(c4ccc(NS(=O)(=O)c5ccc(NC(CCN6CCC(C(=O)OCCCP(=O)(O)O)CC6)CSc6ccccc6)c(S(=O)(=O)C(F)(F)F)c5)cc4)CC3)c2)c(-c2ccc(Cl)cc2)n1C(C)C	1

# ---- query molecule ----
Lab note: confirm whether the reported viability, T/C for this molecule is below 80%, equality not counting. molecule: O=C(c1cc(Cc2n[nH]c(=O)c3ccccc23)ccc1F)N1CCN(C(=O)C2CC2)CC1 + Cc1c(S(C)(=O)=O)c(-c2cc(F)cc(N3CCN(c4ccc(NS(=O)(=O)c5ccc(NC(CCN6CCC(C(=O)OCCCP(=O)(O)O)CC6)CSc6ccccc6)c(S(=O)(=O)C(F)(F)F)c5)cc4)CC3)c2)c(-c2ccc(Cl)cc2)n1C(C)C
0
